# system-name: T1, cynomolgus monkey B7-H1 expressed on cells (cynomolgus monkey, UniProt G7PSE7 19-290)
# T1 construct: whole, on cells; also called cyno B7-H1; cynomologus B7-H1
# T1 sequence (G7PSE7 entry or part of it): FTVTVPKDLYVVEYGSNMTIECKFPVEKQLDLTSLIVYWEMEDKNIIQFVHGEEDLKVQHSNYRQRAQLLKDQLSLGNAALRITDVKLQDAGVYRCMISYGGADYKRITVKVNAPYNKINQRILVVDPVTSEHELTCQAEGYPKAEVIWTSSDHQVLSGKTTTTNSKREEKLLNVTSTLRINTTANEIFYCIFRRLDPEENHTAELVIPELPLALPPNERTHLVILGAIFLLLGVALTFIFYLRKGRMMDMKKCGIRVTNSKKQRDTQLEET
# method-summary: FACS, 1 µg/ml antibody, anti-CD3-activated cynomolgus monkey T cells
Please go through the items and note down their geo mean.

Can you look up the measured geo mean of 2.20A8 (antibody, IgG2, V domains shown, also called mAb 2.20A8) VH: EVQLLESGGGLVQPGGSLRLSCAASGFTFSNYAMSWVRQAPGKGLEWVSAIRGSGGSTYYADSVKGRFTISRDNSKNTLYLQMNSLRAEDTAVYYCAKDLHYDSSGYLDYWGQGTLVTVSS VL: DIQMTQSPSSVSASVGDRVTITCRASQGIRSWLAWYQQKPGKAPKLLIYAISRLQSGVPSRFSGSGSGTDFTLTISSLQPEDFATYYCQQANSFPLTFGGGTKVEIK for me? 80.7

# repeat for 2.14H9 (antibody, IgG2, V domains shown, also called mAb 2.14H9) VH: EVQLVESGGGLVQPGGSLRLSCAASGFTFSRYWMSWVRQAPGKGLEWVANIKQDGSEKYYVDSVKGRFTISRDNAKNSLYLQMNSLRAEDTAVYYCAREGGWFGELAFDYWGQGTLVTVSS VL: EIVLTQSPGTLSLSPGERATLSCRASQRVSSSYLAWYQQKPGQAPRLLIYDASSRATGIPDRFSGSGSGTDFTLTISRLEPEDFAVYYCQQYGSLPWTFGQGTEVEIK 106

# repeat for 3.18G1 (antibody, V domains shown, also called mAb 3.18G1) VH: EVQLLESGGDLVQPGGSLRLSCAASGFTFNSYAMSWVRQAPGKGLEWVSTISGSGGFTFSADSVKGRFTISRDNSKNTLFLQMNSLRVEDSAVYSCAKVLVGFNNGCWDYWGQGTLVTVSS VL: SYVLTQPPSVSVAPGQTARITCGGNNIGSKSVHWYQQKPGQAPVLVVYDDSDRPSGIPERFSGSNSGNTATLTISRVEAGDEADYYCQVWDSSNDHVVFGGGTKLTVL 94.6

# repeat for 2.7A4 (antibody, IgG2, V domains shown, also called mAb 2.7A4) VH: EVQLVESGGGLVKPGGSLRLSCAASGFTFSTYSMNWVRQAPGKGLEWVSSISSSGDYIYYADSVKGRFTISRDNAKNSLFLQMNSLKAEDTAVYYCARDLVTSMVAFDYWGQGTLVTVSS VL: SYELTQPPSVSVSPGQAARITCSGDALPQKYVFWYQQKSGQAPVLVIYEDSKRPSGIPERFSGSSSGTMATLTISGAQVEDEADYYCYSTDRSGNHRVFGGGTRLTVL 104

# repeat for 3.15G8 (antibody, IgG4, V domains shown, also called mAb 3.15G8) VH: EVQLVESGGGLVQPGGSLRLSCAASGFTFSSYWMSWVRQAPGKGLEWVANIKQDGGEKYYVDSVKGRFTISRDNAKNSLFLQMNSLRAEDTAVYYCARVQLYSDYFDYWGQGTLVTVSS VL: DIQMTQSPSSVSASVGDRVTITCRASQGISSWLAWYQQKSGKAPKLLIYAASGLQSGVPSRFSGSGSGTDFTLTISSLQPEDLATYYCQQSHSLPPTFGQGTKVEIK 92.8

# repeat for 2.9D10 (antibody, V domains shown, Tested as hybridoma supernatant or purified antibody; also called mAb 2.9D10) VH: EVQLVESGGGLVQPGGSLRLSCAASGFTFSSYWMSWVRQAPGKGLEWVANIKQDGGEQYYVDSVKGRFTISRDNAKNSLYLQMNSLRAEDTAVYYCARDWNYGYYDMDVWGQGTTVTVSS VL: EIVLTQSPGTLSLSPGERATLSCRASQSVSSNYLAWFQQKPGQAPRLLIFGTSSRATGIPDRFSGSGSGTDFTLTISRLEPEDFAVYYCQQYGSSIFTFGPGTKVDIK 107
